Source of measurements: patent US20240182536A1

Tested target: T1, IL-18 receptor (IL-18Rα and IL-18Rβ) (UniProt Q13478 19-541; O95256 20-599, limits assumed)
T1 sequence (looked up) 1: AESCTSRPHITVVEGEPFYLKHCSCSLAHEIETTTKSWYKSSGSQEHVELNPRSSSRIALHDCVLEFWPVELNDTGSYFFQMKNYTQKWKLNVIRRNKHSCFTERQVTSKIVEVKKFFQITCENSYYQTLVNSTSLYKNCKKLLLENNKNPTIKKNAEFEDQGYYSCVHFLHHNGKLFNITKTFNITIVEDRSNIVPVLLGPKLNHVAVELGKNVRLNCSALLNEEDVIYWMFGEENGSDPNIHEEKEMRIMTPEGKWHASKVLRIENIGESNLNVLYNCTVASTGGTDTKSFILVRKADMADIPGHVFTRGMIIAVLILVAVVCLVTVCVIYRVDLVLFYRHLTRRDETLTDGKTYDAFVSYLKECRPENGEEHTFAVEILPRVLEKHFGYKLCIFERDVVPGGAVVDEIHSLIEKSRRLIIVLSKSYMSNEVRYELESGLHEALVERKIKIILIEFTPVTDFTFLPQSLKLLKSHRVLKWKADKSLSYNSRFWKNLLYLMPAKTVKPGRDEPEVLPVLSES
T1 sequence (looked up) 2: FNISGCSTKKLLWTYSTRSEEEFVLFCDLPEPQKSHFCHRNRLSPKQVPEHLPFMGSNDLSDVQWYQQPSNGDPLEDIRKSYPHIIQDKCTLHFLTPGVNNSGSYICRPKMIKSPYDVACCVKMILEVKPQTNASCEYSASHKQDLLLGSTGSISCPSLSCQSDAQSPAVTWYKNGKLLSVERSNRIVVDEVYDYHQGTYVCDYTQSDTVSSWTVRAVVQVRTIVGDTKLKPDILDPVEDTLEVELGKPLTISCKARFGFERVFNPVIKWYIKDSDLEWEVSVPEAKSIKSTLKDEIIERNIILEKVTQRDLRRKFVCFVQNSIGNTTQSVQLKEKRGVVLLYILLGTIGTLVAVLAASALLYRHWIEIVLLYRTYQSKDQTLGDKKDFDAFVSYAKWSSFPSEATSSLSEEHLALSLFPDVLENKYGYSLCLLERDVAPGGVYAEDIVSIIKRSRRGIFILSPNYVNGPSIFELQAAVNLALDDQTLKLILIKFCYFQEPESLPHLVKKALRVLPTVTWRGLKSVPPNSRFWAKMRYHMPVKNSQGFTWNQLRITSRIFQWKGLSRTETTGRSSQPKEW
Method: cell-based or functional assay
Measured attribute: EC50 (pM) - BP, HEK-blue re-screening

[[record]]
binder = "IL-18 variant G3Q, E6N, D54Y, S55P, T63S, N91S, R104H (ligand) YFQKLNSKLSVIRNLNDQVLFIDQGNRPLFEDMTDSDMRDNAPRTIFIISMYKYPQPRGMAVSISVKSEKISTLSSENKIISFKEMNPPDSIKDTKSDIIFFQHSVPGHDNKMQFESSSYEGYFLASEKERDLFKLILKKEDELGDRSIMFTVQNED"
obs_value = 9.63

[[record]]
binder = "IL-18 variant G3Q, E6S, S55V, T63A, N91T (ligand) YFQKLSSKLSVIRNLNDQVLFIDQGNRPLFEDMTDSDMRDNAPRTIFIISMYKDVQPRGMAVAISVKSEKISTLSSENKIISFKEMNPPDTIKDTKSDIIFFQRSVPGHDNKMQFESSSYEGYFLASEKERDLFKLILKKEDELGDRSIMFTVQNED"
obs_value = 0.2

[[record]]
binder = "IL-18 variant G3Q, E6K, D54S, S55P, T63S, N91S, R104Q (ligand) YFQKLKSKLSVIRNLNDQVLFIDQGNRPLFEDMTDSDMRDNAPRTIFIISMYKSPQPRGMAVSISVKSEKISTLSSENKIISFKEMNPPDSIKDTKSDIIFFQQSVPGHDNKMQFESSSYEGYFLASEKERDLFKLILKKEDELGDRSIMFTVQNED"
obs_value = 0.27

[[record]]
binder = "IL-18 variant G3Q, E6G, D54N, S55H, T63V, N91M, R104T (ligand) YFQKLGSKLSVIRNLNDQVLFIDQGNRPLFEDMTDSDMRDNAPRTIFIISMYKNHQPRGMAVVISVKSEKISTLSSENKIISFKEMNPPDMIKDTKSDIIFFQTSVPGHDNKMQFESSSYEGYFLASEKERDLFKLILKKEDELGDRSIMFTVQNED"
obs_value = 0.99

